- SYSTEM: T1, recombinant human IL1RAP (Homo sapiens, UniProt Q9NPH3)
- T1 construct: MBP-IL1RAP(S21-T367)-; 8xHis (C); made in house; host or cells: CHO (ExpiCHO transient expression)
- TEST DESCRIPTION: Binding competition binning on Octet
- TEST CONDITIONS: Protein A biosensors
READOUT: competition for binding, bin (2)

37E10_15B5: human anti-IL1RAP antibody BFB759 (i.e., 37E10_15B5), VH SEQ ID NO: 64, VL SEQ ID NO: 68 (antibody, V domains shown) VH: QVQLVESGGGVVQPGRSLRLSCAASGFTFRSHGMHWVRQAPGKGLEWVAVIWYDGSSEYYADSVKGRFTISRDNSKNTLYLQMNSLRAEDTAVYYCARENVYGSGWFFDYWGQGTLVTVSS VL: EIVMTQSPATLSVSPGERASLSCRASQSVGSNLAWYQQRPGQAPRLLIFGASTRATGIPARFSGSRSGTEFTLTISSLQSEDFALYYCQQYNNWPPWTFGQGTKLEIK ... competed with each other
44E5_15C5: human anti-IL1RAP antibody, VH SEQ ID NO: 71, VL SEQ ID NO: 73 (antibody, V domains shown) VH: QVQLVESGGGVVQPGRSLRLSCAASGFTFRSHGMHWVRQAPGKGLEWVAVIWYDGSSDYYADSVKGRFTISRDNSKNTLFLQMNSLSAEDTAVYYCARENVYGSGWFFDYWGQGTLVTVSS VL: EIVMTQSPATLSVSPGERASLSCRASQSVGSNLAWYQQKPGQAPRLLIFGASTRATGIPARFSGSRSGTEFTLTISSLQSEDFALYYCQQYNNWPPWTFGQGTKLEIK ... competed with each other
32C12_21A4: human anti-IL1RAP antibody, VH SEQ ID NO: 32, VL SEQ ID NO: 36 (antibody, V domains shown) VH: QVQLVESGGGVVQPGRSLRLSCAASGFTFRNYGIHWVRQAPGKGLEWVAVIWYDGSNKFYADSVKGRFTISRDNSKNTLYLQMNSLRVEDTAVYYCAREEGIAVAPFDYWGQGTLVTVSS VL: DIQMTQSPSSLSASVGDRVAITCRANQSIASYLNWYQQKPGKAPKLLIYGASSLQNGVPSRFSGSGSRTDFTLTISSLQPEDFATYYCQQSYSTEITFGQGTRLEIK ... competed with each other
